Origin of measurements: paper PMC9855333

# testedSystem: human 5-HT7b receptor (Homo sapiens)
# Construct: expressed in transfected cells
# Sequence (P34969 1-432 limits assumed): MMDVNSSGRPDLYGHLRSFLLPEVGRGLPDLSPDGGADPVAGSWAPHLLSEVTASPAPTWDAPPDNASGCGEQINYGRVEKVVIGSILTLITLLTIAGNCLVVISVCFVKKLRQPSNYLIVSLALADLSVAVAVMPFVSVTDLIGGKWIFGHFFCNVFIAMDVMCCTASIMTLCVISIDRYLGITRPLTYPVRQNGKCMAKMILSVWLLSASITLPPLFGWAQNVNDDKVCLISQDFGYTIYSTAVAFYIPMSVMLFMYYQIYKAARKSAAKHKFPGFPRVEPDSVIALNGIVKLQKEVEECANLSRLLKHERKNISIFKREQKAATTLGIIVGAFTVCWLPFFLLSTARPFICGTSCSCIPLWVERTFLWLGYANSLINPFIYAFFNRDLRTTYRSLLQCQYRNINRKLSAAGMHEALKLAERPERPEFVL
# protocolDescription: Radioligand binding, [3H]-5-CT displacement, HEK-293 cells
# appliedConditions: mean ± SEM, three independent binding experiments; read-out: Ki [nM] 5-HT7R
Below, each entry is listed alongside its reported Ki.
All answers are understood in nM, so give the number only.

{"compound": "O=S(=O)(c1cccc(N2CCNCC2)c1)N1Cc2cccc(Br)c2C1 [3g]", "testedSystem": "human 5-HT7b receptor (Homo sapiens)", "experimentalResult": 8800}
{"compound": "O=S(=O)(c1cccc(N2CCNCC2)c1)N1Cc2cccc(Cl)c2C1 [3f]", "testedSystem": "human 5-HT7b receptor (Homo sapiens)", "experimentalResult": 10700}

Here's the next entry for you.
Kindly indicate its recorded Ki. Item: O=S(=O)(c1cccc(N2CCNCC2)c1)N1Cc2ccccc2C1 [3e]
4530

----------
IC50 at 48 h for assorted compounds
# protocolDescription: Cytotoxicity, MTT test, C8-D1A
# Assay type: cell-based
# appliedConditions: mouse, C8-D1A cells (mouse astrocytes)

Answered examples (3):
{"compound": "O=S(=O)(c1cccc(N2CCNCC2)c1)N1Cc2cccc(Br)c2C1", "IC50 at 48 h": "> 50 µM"}
{"compound": "O=S(=O)(c1cccc(N2CCNCC2)c1)N1Cc2cccc(Cl)c2C1", "IC50 at 48 h": "> 50 µM"}
{"compound": "COc1cccc2c1C(=O)c1c(O)c3c(c(O)c1C2=O)C[C@@](O)(C(=O)CO)C[C@@H]3O[C@H]1C[C@H](N)[C@H](O)[C@H](C)O1 [Doxorubicin, reference compound]", "IC50 at 48 h": "12.3 µM"}

Consider the additional compound presented here.
Give a short answer stating reported IC50 at 48 h for O=S(=O)(c1cccc(N2CCNCC2)c1)N1Cc2ccccc2C1 .
> 50 µM

----------
# testedSystem: 5-HT6R (Homo sapiens)
# Sequence (P50406 whole entry): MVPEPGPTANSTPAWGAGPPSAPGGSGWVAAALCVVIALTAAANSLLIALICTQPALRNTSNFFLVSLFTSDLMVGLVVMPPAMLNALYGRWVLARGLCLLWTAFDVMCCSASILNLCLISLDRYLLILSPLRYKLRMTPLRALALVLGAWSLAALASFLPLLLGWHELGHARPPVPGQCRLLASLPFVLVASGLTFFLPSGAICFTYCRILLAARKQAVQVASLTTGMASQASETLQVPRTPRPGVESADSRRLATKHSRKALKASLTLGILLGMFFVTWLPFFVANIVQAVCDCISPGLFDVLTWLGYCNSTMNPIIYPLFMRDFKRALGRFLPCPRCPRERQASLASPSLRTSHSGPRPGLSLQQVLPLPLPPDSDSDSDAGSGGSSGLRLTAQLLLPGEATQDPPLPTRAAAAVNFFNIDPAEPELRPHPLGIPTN
# protocolDescription: Radioligand binding, [3H]-LSD displacement, HEK-293 cells
# Parameters: expressed in transfected cells
# appliedConditions: Table 1; HEK293 cells; three independent binding experiments; read-out: Ki [nM] ± SEM at the 5-HT6R
Reported Ki values for a set of compounds
The reply should be a number in nM, with the unit left off.

Previously resolved entries follow.
{"compound": "O=S(=O)(c1ccc(N2CCNCC2)cc1)N1Cc2cccc(Cl)c2C1 [3b]", "testedSystem": "5-HT6R (Homo sapiens)", "unitAnnotation": "nM", "Ki": 7}
{"compound": "O=S(=O)(c1ccc(N2CCNCC2)cc1)N1Cc2ccc(Br)cc2C1 [3d]", "testedSystem": "5-HT6R (Homo sapiens)", "unitAnnotation": "nM", "Ki": 87}
{"compound": "O=S(=O)(c1ccccc1N1CCNCC1)N1Cc2cccc(Br)c2C1 [3k]", "testedSystem": "5-HT6R (Homo sapiens)", "unitAnnotation": "nM", "Ki": 32}
{"compound": "O=S(=O)(c1ccc(N2CCNCC2)cc1)N1Cc2ccccc2C1 [3a]", "testedSystem": "5-HT6R (Homo sapiens)", "unitAnnotation": "nM", "Ki": 6}

Alright, here's another compound for you.
// Input: O=S(=O)(c1ccc(N2CCNCC2)cc1)N1Cc2cccc(Br)c2C1 [3c] . Output its Ki only.
10

----------
Catalogue of half-life at 20 µM values
# protocolDescription: Metabolic stability in rat liver microsomes (RLM)
# Type: in vitro ADME
# appliedConditions: male, rat, rat liver microsomes, pH 7.4, protein concentration 0.5 mg/mL, read-out: Metabolic Stability t1/2
Quick reminder: number only, in min, skip the unit.

Recorded results for 2 compounds are shown here.
{"compound": "O=S(=O)(c1cccc(N2CCNCC2)c1)N1Cc2cccc(Cl)c2C1 [3f]", "unitAnnotation": "min", "experimentalResult": 77}
{"compound": "O=S(=O)(c1cccc(N2CCNCC2)c1)N1Cc2ccccc2C1 [3e]", "unitAnnotation": "min", "experimentalResult": 367}

Please turn your attention to the following entry.
Supply half-life at 20 µM value. Item: O=S(=O)(c1cccc(N2CCNCC2)c1)N1Cc2cccc(Br)c2C1 [3g]
94.4

----------
# protocolDescription: Metabolic stability in rat liver microsomes (RLM)
# Type: in vitro ADME
# appliedConditions: male, rat, rat liver microsomes, pH 7.4, protein concentration 0.5 mg/mL
Each entry below carries its reported microsomal CLint at 20 µM.
Return type: number; implicit unit µL/min/mg.

{"inputSmiles": "O=S(=O)(c1cccc(N2CCNCC2)c1)N1Cc2ccccc2C1", "assayMetric": "microsomal CLint at 20 µM", "unitAnnotation": "µL/min/mg", "experimentalResult": 3.78}
{"inputSmiles": "O=S(=O)(c1cccc(N2CCNCC2)c1)N1Cc2cccc(Br)c2C1", "assayMetric": "microsomal CLint at 20 µM", "unitAnnotation": "µL/min/mg", "experimentalResult": 14.7}

Okay, next one:
Consider the molecule O=S(=O)(c1cccc(N2CCNCC2)c1)N1Cc2cccc(Cl)c2C1 . State its measured microsomal CLint at 20 µM.
18

----------
# protocolDescription: Cytotoxicity, MTT test, HepG2
# Type: cell-based
# appliedConditions: human, HepG2 cells (human hepatocellular carcinoma)
assayMetric: IC50 at 48 h

Please review the entries below; each comes with its answer.
{"molecule": "O=S(=O)(c1cccc(N2CCNCC2)c1)N1Cc2cccc(Br)c2C1 [3g]", "IC50 at 48 h": "> 50 µM"}
{"molecule": "COc1cccc2c1C(=O)c1c(O)c3c(c(O)c1C2=O)C[C@@](O)(C(=O)CO)C[C@@H]3O[C@H]1C[C@H](N)[C@H](O)[C@H](C)O1 [Doxorubicin, reference compound]", "IC50 at 48 h": "10.8 µM"}
{"molecule": "O=S(=O)(c1cccc(N2CCNCC2)c1)N1Cc2ccccc2C1 [3e]", "IC50 at 48 h": "> 50 µM"}

Output IC50 at 48 h of O=S(=O)(c1cccc(N2CCNCC2)c1)N1Cc2cccc(Cl)c2C1 [3f]
> 50 µM

----------
Listed below: Ki values for each entry.
# testedSystem: human D2L receptor (Homo sapiens, UniProt P14416)
# Construct: expressed in transfected cells
# Sequence (P14416 whole entry): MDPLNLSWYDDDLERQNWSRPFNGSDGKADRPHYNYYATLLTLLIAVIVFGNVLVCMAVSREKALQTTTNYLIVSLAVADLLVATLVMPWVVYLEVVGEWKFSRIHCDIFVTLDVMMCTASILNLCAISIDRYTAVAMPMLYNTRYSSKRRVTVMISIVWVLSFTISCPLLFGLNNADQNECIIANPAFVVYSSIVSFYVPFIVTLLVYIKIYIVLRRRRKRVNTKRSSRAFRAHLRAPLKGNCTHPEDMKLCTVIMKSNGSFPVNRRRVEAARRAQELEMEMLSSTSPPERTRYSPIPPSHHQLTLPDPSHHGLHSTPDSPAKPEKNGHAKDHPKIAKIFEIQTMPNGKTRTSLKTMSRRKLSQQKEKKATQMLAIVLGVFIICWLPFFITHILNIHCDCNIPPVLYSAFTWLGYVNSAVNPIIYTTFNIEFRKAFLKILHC
# protocolDescription: Radioligand binding, [3H]-raclopride displacement, HEK-293 cells
# appliedConditions: mean ± SEM, three independent binding experiments; read-out: Ki [nM] D2
The answer is to be given in nM; state only the numeric part.

Name the recorded Ki of the molecule listed here: O=S(=O)(c1cccc(N2CCNCC2)c1)N1Cc2ccccc2C1
3420

Tell me its Ki given O=S(=O)(c1cccc(N2CCNCC2)c1)N1Cc2cccc(Br)c2C1 as the entry.
2440

Report Ki for O=S(=O)(c1cccc(N2CCNCC2)c1)N1Cc2cccc(Cl)c2C1
2030

----------
Readings of Ki for the listed compounds
# testedSystem: human 5-HT1A receptor (Homo sapiens)
# Construct: expressed in transfected cells
# Sequence (P08908 whole entry): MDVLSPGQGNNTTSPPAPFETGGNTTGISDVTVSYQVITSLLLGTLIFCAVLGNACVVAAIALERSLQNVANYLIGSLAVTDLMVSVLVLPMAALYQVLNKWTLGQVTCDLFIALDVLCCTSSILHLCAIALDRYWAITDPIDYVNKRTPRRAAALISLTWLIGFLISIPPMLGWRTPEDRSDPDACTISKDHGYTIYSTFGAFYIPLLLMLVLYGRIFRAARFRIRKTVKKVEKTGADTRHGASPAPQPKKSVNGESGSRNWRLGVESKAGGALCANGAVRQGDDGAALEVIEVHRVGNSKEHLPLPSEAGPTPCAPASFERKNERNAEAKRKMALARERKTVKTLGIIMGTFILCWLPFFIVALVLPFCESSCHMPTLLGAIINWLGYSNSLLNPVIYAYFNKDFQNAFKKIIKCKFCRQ
# protocolDescription: Radioligand binding, [3H]-8-OH-DPAT displacement, HEK-293 cells
# appliedConditions: mean ± SEM, three independent binding experiments; read-out: Ki [nM] 5-HT1AR
Entry rule: numbers only, all in nM.

{"compound": "O=S(=O)(c1cccc(N2CCNCC2)c1)N1Cc2ccccc2C1 [3e]", "testedSystem": "human 5-HT1A receptor (Homo sapiens)", "experimentalResult": 951}
{"compound": "O=S(=O)(c1cccc(N2CCNCC2)c1)N1Cc2cccc(Cl)c2C1 [3f]", "testedSystem": "human 5-HT1A receptor (Homo sapiens)", "experimentalResult": 385}

From here, focus on the item given below.
# return recorded Ki for entry O=S(=O)(c1cccc(N2CCNCC2)c1)N1Cc2cccc(Br)c2C1 [3g]
680
